molecular target: hTAAR1 (Homo sapiens, UniProt Q96RJ0); construct: expressed in transfected cells; host or cells: Expi293F; assay: G protein (mini-Gs) recruitment luminescence complementation assay, agonist mode; format: cell-based; settings: Tables S3A/S3B; compounds tested at 20 μM; relative to the maximal effect of β-PEA (20 µM)
Decide by Emax: equal to or exceeding 4% means Y, less means N.

Here are 5 compounds together with their reported answers.
compound	category
CN1CCC(c2ccc(Br)cc2)C1 (centres unmarked)	N
Cl.Cl.c1cnc2c(c1)CNC2	Y
CN[C@@H](C)CNc1ncnc2sc(C)cc12	Y
CCN1CCCC(c2ccccc2)C1 (centres unmarked)	Y
Cc1nc(C(N)C(C)O)cs1.Cl.Cl (centres unmarked)	N

**Query** Given CC(NCCO)c1cccc2c1OCO2 (centres unmarked) , state whether its Emax is at least 4%.
**Result** N

**Query** Is Emax at least 4%? Consider OC(CNC[C@@H]1Cc2ccccc2CO1)C1CC1 (some centres unmarked)
**Result** Y

---

target: hTAAR1 (Homo sapiens, UniProt Q96RJ0); construct: expressed in transfected cells; host or cells: Expi293F; experiment: G protein (mini-Gs) recruitment luminescence complementation assay, agonist mode; assay type: cell-based; details: TAAR1, G protein recruitment assay; read-out: pEC50 (converted)
Parameter: EC50. Scope: all listed entries.
# value in nM; strip the unit string

Sample answers from the record:
compound	reported.property	measured.value
C1=C(c2ccco2)CNCC1	EC50	31.6
CCNCc1cccc2ccoc12	EC50	3160

**Query** Name the reported EC50 value associated with the compound c1coc(C2CNCCO2)c1 (stereo not drawn)
**Result** 398

---

Target: hTAAR1 (Homo sapiens, UniProt Q96RJ0)
Construct: expressed in transfected cells; host or cells: Expi293F
Sequence (Q96RJ0 1-339): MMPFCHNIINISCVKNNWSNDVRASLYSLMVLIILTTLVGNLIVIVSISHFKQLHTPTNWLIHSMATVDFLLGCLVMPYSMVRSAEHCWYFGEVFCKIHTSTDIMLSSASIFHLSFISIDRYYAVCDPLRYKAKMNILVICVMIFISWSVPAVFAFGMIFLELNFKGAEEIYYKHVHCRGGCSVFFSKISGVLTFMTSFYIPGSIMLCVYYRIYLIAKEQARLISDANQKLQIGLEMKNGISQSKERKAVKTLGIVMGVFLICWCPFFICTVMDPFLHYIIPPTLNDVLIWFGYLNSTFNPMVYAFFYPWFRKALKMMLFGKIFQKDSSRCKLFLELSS
Test: G protein (mini-Gs) recruitment luminescence complementation assay, agonist mode
Format: cell-based
Conditions: TAAR1, G protein recruitment assay; read-out: pEC50 (converted)
One threshold, 4 µM, splits the recorded EC50 values: lower ones are Condition met, equal or higher ones are Condition not met.

Sample answers from the record:
compound	category
Cc1cc2c(CCN)csc2s1 [Compound 21]	Condition met
CC1=C(c2ccncc2)CNCC1 [Compound 77]	Condition not met
c1ccc2cc(CNC3CC3)ccc2c1 [Compound 56]	Condition not met

**Query** For c1csc([C@H]2CCCNC2)n1 [Compound 25] , is the recorded EC50 below the cut-off of 4 µM?
**Result** Condition met

**Query** Would you kindly verify if EC50 of Brc1csc2c1CNCC2 [Compound 29] is strictly less than 4 µM?
**Result** Condition met

**Query** Would you kindly verify if EC50 of CC[C@@H](CNCC1=CCCOC1)c1ccccc1 [Compound 58] is strictly less than 4 µM?
**Result** Condition not met

**Query** A record lists NC[C@H]1Cc2cc(Br)ccc2O1 [Compound 17] . Is its EC50 below 4 µM?
**Result** Condition not met

**Query** Does Cc1ccc2c(c1Br)CNC2 [Compound 28] have EC50 strictly under 4 µM?
**Result** Condition met
